Attribution: PubChem BioAssay

# testDetails: change in splice reporter luminescence, either direction, cell-based, HEK293, spliceosome inhibition project, primary screen (AID 1101);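 further: HEK293 cells carrying a splicing-competent luciferase reporter gene; test concentration not given here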
# experimentalParameters: HEK293 splicing luciferase reporter, 24 h, higher = more signal, called active from +8 up or from −8 down
Quick rule: z-score of at least -0.6 means Fulfilled, below that means Not fulfilled.

compound	class
C=CCNC(=O)[C@@H]1[C@H]2C(=O)O[C@H](c3ccccc3)[C@H](c3ccccc3)N2[C@H](c2ccc(OCCO)cc2)[C@@]12C(=O)Nc1ccc(C#CC3(O)CCCCCC3)cc12	Not fulfilled
NC(=O)N1C(=O)C2C(C1=O)C1C=C(CCCO)C2C(C2CC2)N1Cc1sc2ccccc2c1Cl (stereo not drawn)	Fulfilled
CCOC(=O)C1=CC[C@@H](c2ccccc2)N(S(=O)(=O)c2ccc(C)cc2)[C@H]1c1ccccc1I	Fulfilled
CN(C)CCCC[C@@H]1NC(=O)[C@@H]2C[C@H](C(=O)NCCCCCN)[C@H](c3cccc(OCCO)c3)N2C1=O	Not fulfilled
CCCC[C@H]1C[C@@H]1[C@@H]1N(C(C)=O)[C@H](c2cccc(OC)c2)CC12CC2	Not fulfilled
COc1ccc(C(=O)Nc2cccc(CN3C(=O)[C@]4(O[C@H](CC(=O)N5Cc6ccccc6C[C@H]5CO)[C@@H]([Si](C)(C)c5ccc(OC)cc5)[C@@H]4C)c4ccccc43)c2)cc1	Not fulfilled
CN1C(=O)C2C=CC(C(O)c3ccc(-c4ccccc4)s3)N(NC(=O)OC(C)(C)C)C2C1=O (stereo not drawn)	Fulfilled
Cc1ccc(S[C@]2(C(=O)NCCCN(C)C)CC(=O)N(Cc3ccccc3C(F)(F)F)[C@@H]2c2ccc(CO)cc2I)cc1	Fulfilled
CCCNC(=O)[C@@]1(c2ccc([N+](=O)[O-])cc2)CC(=O)N(C(C)C)[C@@H]1c1ccc(CO)cc1	Fulfilled
COc1ccc([Si](C)(C)[C@H]2[C@H](CCO)O[C@@]3(C(=O)N(Cc4cccc(N(C=O)c5ccccc5)c4)c4ccccc43)[C@@H]2C)cc1	Not fulfilled
COCCCNC(=O)[C@@]1(CCS(=O)(=O)c2ccccc2)COC(c2ccc(OCCCO)cc2)=N1	Fulfilled
COCCOC(=O)N1C(=O)[C@@]2(c3cc(C#CCCO)ccc31)[C@H](c1ccc(OCCO)cc1)N1[C@H](c3ccccc3)[C@H](c3ccccc3)OC(=O)[C@H]1[C@@H]2C(=O)N1CCCCCCC1	Fulfilled
CN(C)c1ccc(C(O)C2C=CC3C(=O)N(Cc4ccccc4)C(=O)C3N2n2cnnc2)cc1 (stereo not drawn)	Fulfilled
C=CCOC(=O)[C@@H]1[C@H]2C(=O)O[C@H](c3ccccc3)[C@H](c3ccccc3)N2[C@H](c2ccc(OCCOC(=O)[C@H]3C[C@H]4C(=O)NCC(=O)N4[C@H]3c3cccc(OCCO)c3)cc2)[C@@]12C(=O)Nc1ccc(I)cc12	Fulfilled
COC(=O)C(CC#Cc1ccc2c(c1)[C@]1(C(=O)N2)[C@H](C(=O)NC[C@H](O)c2ccccc2)[C@H]2C(=O)O[C@H](c3ccccc3)[C@H](c3ccccc3)N2[C@@H]1c1ccccc1OCCO)C(=O)OC	Fulfilled
O=C(NC1CC1)[C@@H]1c2ccccc2C(=O)N(CC23CC4CC(CC(C4)C2)C3)[C@H]1c1ccc(CO)cc1	Not fulfilled
C=C(CCCC)/C(=C/C[C@H](OC(=O)c1ccncc1)c1ccccc1OCCO)c1cc(C(=O)OC)ccc1OC	Not fulfilled
CC1=C([C@H](O)CCc2ccccc2)[C@H](CO)n2c(=O)n(-c3ccccc3)c(=O)n2C1	Not fulfilled
